- System: HL-60
- Assay name: Cytotoxicity against human HL60 cells after 72 hrs by MTT assay
- Type: functional, cell-based
- Particulars: HL-60, 72 h
pIC50: −log10 of the molar value.
Measured metric: pIC50

Some compounds with recorded pIC50:
O=C1c2ccccc2C(=O)c2c1ccc1nc(-c3cccc(O)c3)[nH]c21 = < 4.83
COc1cc(-c2nc3ccc4c(c3[nH]2)C(=O)c2ccccc2C4=O)ccc1O = < 4.87
CCCC1=C(O)C(=O)c2ccccc2C1=O = < 4.64
Cc1ccccc1-c1nc2ccc3c(c2[nH]1)C(=O)c1ccccc1C3=O = < 4.83
CC1(C)OC2=C(C(=O)C(=O)c3ccccc32)[C@H](n2cc(-c3ccc(F)cc3)nn2)[C@H]1Br = 5.92

[Q] Find pIC50 (HL-60) for the entry O=C1c2ccccc2C(=O)c2c1ccc1nc(-c3ccccc3O)[nH]c21
[A] < 4.83

[Q] Do the same for CC1(C)OC2C(=O)c3ccccc3C(=O)C2[C@@H](N=[N+]=[N-])[C@@H]1Br (stereo not given in full) please
[A] 5.25

[Q] Same read-out for Cc1cccc(-c2nc3ccc4c(c3[nH]2)C(=O)c2ccccc2C4=O)c1 ?
[A] < 4.83

[Q] Next compound up: CCCC1=C(O)C(=O)C2=C(CCCC2)C1=O
[A] < 4.64

[Q] Same lookup for CC1(C)OC2=C(C(=O)C(=O)c3ccccc32)[C@H](N=[N+]=[N-])[C@H]1Br , please.
[A] 5.84

====

- Test system: PBMC
- Assay name: Cytotoxicity against human PBMC cells after 72 hrs by Alamar Blue assay
- Assay type: cell-based
Entries annotated with measured IC50

Worked examples, 3 compounds total:
CC1(C)OC2=C(C(=O)C(=O)c3ccccc32)[C@H](n2cc(-c3ccc(Br)cc3)nn2)[C@H]1Br = 4.01 µM
O=C1c2ccccc2C(=O)c2c1ccc1nc(-c3ccccc3)[nH]c21 = > 15.4 µM
CC1(C)CCC2=C(O1)c1ccccc1C(=O)C2=O = > 20.6 µM

[Q] Please tell me: IC50 of CC1(C)OC2C(=O)c3ccccc3C(=O)C2[C@@H](N=[N+]=[N-])[C@@H]1Br (stereo not given in full) , system PBMC?
[A] 11.3 µM

[Q] Please answer likewise for O=C1c2ccccc2C(=O)c2c1ccc1nc(-c3ccc(F)cc3)[nH]c21
[A] > 14.6 µM

[Q] Cool, now O=C1c2ccccc2C(=O)c2c1ccc1nc(-c3ccccc3F)[nH]c21
[A] > 14.6 µM

[Q] Let us now turn to CCCC1=C(OC2(CCC)C(=O)C(=O)c3ccccc3C2=O)C(=O)c2ccccc2C1=O (stereo not given)
[A] > 11.6 µM

[Q] Now the compound CC(C)CCC1=C(O)C(=O)c2ccccc2C1=O
[A] > 20.5 µM

[Q] Now the compound COc1ccc(-c2cn([C@H]3C4=C(OC(C)(C)[C@@H]3Br)c3ccccc3C(=O)C4=O)nn2)cc1
[A] 2.52 µM

[Q] Record: Cc1ccc(-c2nc3ccc4c(c3[nH]2)C(=O)c2ccccc2C4=O)cc1
[A] > 14.8 µM

====

- System: PBMC
- Assay name: Cytotoxicity against human PBMC cells after 72 hrs by Alamar Blue assay
- Type: cell-based
IC50 listing for selected compounds.

As a guide, the following entries are already answered.
Cc1ccccc1-c1nc2ccc3c(c2[nH]1)C(=O)c1ccccc1C3=O = > 14.8 µM
Cc1cccc(-c2nc3ccc4c(c3[nH]2)C(=O)c2ccccc2C4=O)c1 = > 14.8 µM
CCCC1=C(O)C(=O)c2ccccc2C1=O = > 23.1 µM
C=CCC1=C(OC2(CC=C)C(=O)C(=O)c3ccccc3C2=O)C(=O)c2ccccc2C1=O (stereo not drawn) = > 11.7 µM
CC(C)=CCC1=C(OC2(CC=C(C)C)C(=O)C(=O)c3ccccc3C2=O)C(=O)c2ccccc2C1=O (stereo not drawn) = > 10.4 µM
CC(C)CC1=C(OC2(CC(C)C)C(=O)C(=O)C3=C(CCCC3)C2=O)C(=O)C2=C(CCCC2)C1=O (stereo not drawn) = > 10.7 µM

[Q] What is its IC50 for PBMC? Entry: O=C1c2ccccc2C(=O)c2c1ccc1nc(-c3ccc(O)cc3)[nH]c21
[A] > 14.7 µM

[Q] What do you have for O=C1c2ccccc2C(=O)c2c1ccc1nc(-c3cccc(F)c3)[nH]c21 ?
[A] > 14.6 µM

[Q] Continue with CC(C)CC1=C(O)C(=O)C2=C(CCCC2)C1=O
[A] > 21.4 µM

[Q] Follow-up item: CC1=C(OC2(C)C(=O)c3ccccc3C2=O)C(=O)c2ccccc2C1=O
[A] > 14.4 µM

[Q] Further, for COc1cc(-c2nc3ccc4c(c3[nH]2)C(=O)c2ccccc2C4=O)ccc1O ?
[A] > 13.6 µM

[Q] What do we get for CC(C)CCC1=C(OC2(CCC(C)C)C(=O)C(=O)C3=C(CCCC3)C2=O)C(=O)C2=C(CCCC2)C1=O (stereo not drawn) ?
[A] > 10.1 µM

[Q] Next record, please: O=C1c2ccccc2C(=O)c2c1ccc1nc(-c3ccccc3O)[nH]c21
[A] > 14.7 µM

// data source = ChEMBL document CHEMBL1649387
